Source of measurements: patent US20090215807A1

# Measured On: human recombinant chemokine CCR8 receptor (Homo sapiens, UniProt P51685)
# Sequence (P51685 whole entry): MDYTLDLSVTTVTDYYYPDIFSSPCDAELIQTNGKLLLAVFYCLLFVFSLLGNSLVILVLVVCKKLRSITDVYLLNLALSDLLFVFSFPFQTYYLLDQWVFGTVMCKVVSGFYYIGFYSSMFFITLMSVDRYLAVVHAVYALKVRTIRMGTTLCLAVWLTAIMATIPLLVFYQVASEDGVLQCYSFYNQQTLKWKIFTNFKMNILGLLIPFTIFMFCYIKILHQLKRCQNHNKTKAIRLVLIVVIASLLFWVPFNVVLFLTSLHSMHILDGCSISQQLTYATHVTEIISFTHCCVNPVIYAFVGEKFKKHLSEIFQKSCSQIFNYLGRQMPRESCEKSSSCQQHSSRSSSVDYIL
# Assay Method Text: CCL1 SPA binding assay
# Test Parameters: inhibition of 125I CCL1 binding to CCR8 membranes from transfected CHO-K1 cells
Measured IC50 values are reported for all entries that follow.
Answer with a number only, understood to be in nM.

Sample records with IC50:
**Query** Query the reported IC50 for human recombinant chemokine CCR8 receptor (Homo sapiens, UniProt P51685); item: COc1ccccc1Oc1ccccc1CN1CCC2(CC1)CCN(C(=O)c1ccc[n+]([O-])c1)CC2
**Result** 268

**Query** Query the reported IC50 for human recombinant chemokine CCR8 receptor (Homo sapiens, UniProt P51685); item: CC(C)COc1ccccc1CN1CCC2(CC1)CCN(C(=O)c1cc[n+]([O-])cc1)CC2 [A, reference compound]
**Result** 2670

**Query** Query the reported IC50 for human recombinant chemokine CCR8 receptor (Homo sapiens, UniProt P51685); item: CC(C)COc1ccccc1CN1CCC2(CC1)CCN(C(=O)c1ccc[n+]([O-])c1)CC2 [B, reference compound]
**Result** 3050

**Query** Query the reported IC50 for human recombinant chemokine CCR8 receptor (Homo sapiens, UniProt P51685); item: O=C(c1cccc[n+]1[O-])N1CCC2(CCN(Cc3cccc(Oc4ccccc4)c3)CC2)CC1
**Result** 193

**Query** Query the reported IC50 for human recombinant chemokine CCR8 receptor (Homo sapiens, UniProt P51685); item: COc1ccccc1Oc1ccccc1CN1CCC2(CC1)CCN(C(=O)c1cc[n+]([O-])cc1)CC2
**Result** 117

Further cases:
**Query** Query the reported IC50 for human recombinant chemokine CCR8 receptor (Homo sapiens, UniProt P51685); item: COc1ccccc1Oc1cccc(CN2CCC3(CC2)CCN(C(=O)c2ccc[n+]([O-])c2)CC3)c1
**Result** 207

**Query** Query the reported IC50 for human recombinant chemokine CCR8 receptor (Homo sapiens, UniProt P51685); item: COc1ccccc1Oc1ccccc1CN1CCC2(CC1)CCN(C(=O)c1cccc[n+]1[O-])CC2
**Result** 87

**Query** Query the reported IC50 for human recombinant chemokine CCR8 receptor (Homo sapiens, UniProt P51685); item: O=C(c1cc[n+]([O-])cc1)N1CCC2(CCN(Cc3cccc(Oc4ccccc4)c3)CC2)CC1
**Result** 305
